- Method summary: yeast display, Sf9 membrane polyspecificity reagent, FACS + sequencing; frameworks hold sequencing errors
Assay readout: polyreactivity (PSR sort gate)

QVQLVESGGGLVQAGGSLRLSCAASGGTFAWNAMGWYRQATGKERELVAAISFDGTSTYYADSVKGRFTISRDNAKNTVYLQMNSLKPEDTAVYYCNRVYLGYFRYDYWGQGTQVTVSS    high polyreactivity
QVQLVESGGGLVQAGGSLRLRCAASGSTFAYYAMGWYRQAPGKERELVAAISSGGSTYYADSVKGRFTISRDNAKNTVYIQMNSLKAEETAVYYCNKLRVVKFKRYEFGEWGQGTQVTVSS    low polyreactivity
QVQLVESGGGLVQAGGSLRLSCAASGRTFFKYAMGWYRQAPGKERELVAAITGRGGSTYADSVKGRFTISRDNAKNTVYLQMNSLKPEDTAVYYCAKVYQRGAQYYYYKYDYWGQGTQVTVSS    high polyreactivity
KVQLVESGGGLVQAGGSLRLSCAASGITSSYSAMVWYRQAPGKERELVAAITSSGGSTYYADSVKGRFTISRDNAKNTVYLQMNSLKPEVTAVYYCAARIGQYKAHTRINQYYIRYYWGQGTQVSVSS    low polyreactivity
QVQLVESGGGLVQAGGSLRLSCAASVSTFSTYAMGWYRQAPGKERELVAASTWRGSSTYYADSVKGRFTISRDNAKKTVYLQMNSLKPEDTAVYYCAAEDTFYEYYYWGQGTQVTVSS    high polyreactivity
QVQLVESGGGLVQAGGSLRLSCAASGFTFRFYAMGWYRQAPGKERELVAVITSRGTRTYYADSVKGRFTISRDNAKNTVYLQMNSLKPEDTAVYFCAKDFAFNGGISKYDYWGQGTQVTVSS    high polyreactivity

## Task Any idea what its polyreactivity (PSR sort gate) is? The sequence is QVQLVESGGGLVQAGGSLRLSCAASGFIFSHYAMGWYRQAPGKERELVAAISRNGGSTYYADSVKGRFTISRDNAKNTVYLQMNSLKPEDTAVYYCAVDVSEWYHYDLYYWYYYWGQGTQVTVSS
## Result high polyreactivity

## Task What polyreactivity (PSR sort gate) value was documented for this sequence, QVQLVESGGVLVQAGGSLRFSCAASGIIFDQYAMGWYRQAPGKEREFVAVITRSGGSTYYADSVKGRFTISRDNAKKTVYLQMNSLKPEDTAVYYCAAPRLLGKRRRTNDYWGQGTQVTVSS ?
## Result high polyreactivity
